Entries and their measured soluble at (concentration) in tetralin follow.
# test_protocol: solubility in organic solvents at −10° C.
# Format: physicochemical
# particulars: tetralin, −10° C.
Just the number in %, nothing appended.

Solved entries (count: 2):
compound: CCCCCCCCCCCCCCOc1ccccc1-c1ccccc1 [2-(tetradecyloxy)-1,1′-biphenyl]
soluble at (concentration) in tetralin [%]: 7.5
--
compound: c1ccc(-c2ccccc2OCc2ccccc2COc2ccccc2-c2ccccc2)cc1
soluble at (concentration) in tetralin [%]: 10

[in] Recorded soluble at (concentration) in tetralin of CCCCCCCCCCCCOc1ccccc1-c1ccccc1 [2-(dodecyloxy)-1,1′-biphenyl] , please.
[out] 10
